The origin of these recorded values is patent US20240043505A1.

Exercise: for every item that follows, state its recorded pIC50.
- assay system: SARS-CoV-2 spike receptor-binding domain (RBD) (SARS-CoV-2, UniProt P0DTC2 319-541)
- assay protocol: indirect ELISA on coated RBD ('ELISA affinity')
Give bare numbers, as −log10 of the molar value.

binder	pIC50
Nb95 (VHH) VHH: QVQLVESGGGLVQAGGSLRLSCAASGRTFSSYSMGWFRQAQGKEREFVATINGNGRDTYYTNSVKGRFTISRDDATNTVYLQMNSLKPEDTAIYYCAADKDVYYGYTSFPNEYEYWGQGTQVTVSS	8.64

Given item Nb18 (VHH) VHH: DVQLVESGGGLVQAGGSLRLSCAASGRTFSSYNVGWFRQAPGKEREFVAFIRWSGTSTYYADSVKGRFTISRDNAKNTVYLQMNSLKPEDTAVYYCAATSRTMIHTSQAMPINWDYWGQGTQVTVSS , the value recorded as its pIC50 is 9.24
